These measurements were taken from paper PMC8949187.

- Test system: 22Rv1 cells
- experiment.notes: Trypan blue-based viability assay
- Format: cell-based, human
- condition.info: Homo sapiens, 48 h of treatment, mean ± SD, read-out: IC50, trypan blue staining assay

| molecule.smiles | unit.of.measurement | IC50 |
| --- | --- | --- |
| O=C1c2ccccc2-[n+]2ccc3c([nH]c4ccc(Br)cc43)c21.[Cl-] | nM | 2790 |
| Cc1cc2c([nH]c3ccccc32)c2[n+]1-c1ccccc1C2=O.[Cl-] | nM | 2030 |
| O=C1c2ccc(Br)cc2-[n+]2ccc3c([nH]c4cc(Br)ccc43)c21 | nM | 5140 |

----------
- Test system: DU145 cells
- experiment.notes: MTT assay, DU145 cells
- Type: cell-based, human
- condition.info: Homo sapiens, DU-145; prostate cancer cells; 48 h of treatment; mean ± SD
pIC50: −log10 of the molar value.
quantity.kind: pIC50

| compound | measurement.target | observed.measurement |
| --- | --- | --- |
| O=C1c2cc(Br)ccc2-[n+]2ccc3c([nH]c4ccc(Cl)cc43)c21.[Cl-] [Compound 12] | DU145 cells | 5.68 |
| O=C1c2ccc(Br)cc2-[n+]2ccc3c([nH]c4cccc(Br)c43)c21.[Cl-] [Compound 9] | DU145 cells | 6.48 |
| O=C1c2cc(Br)ccc2-[n+]2ccc3c([nH]c4ccc(I)cc43)c21.[Cl-] [Compound 11] | DU145 cells | 5.87 |
| O=C1c2cc(Br)ccc2-[n+]2ccc3c([nH]c4ccccc43)c21.[Cl-] [Compound 4] | DU145 cells | 5.72 |
